tested on: L02; assay: Hepatoprotective activity against D-GaIN-induced toxicity in human HL7702 cells assessed as inhibition of cell survival rate at 10 uM relative to control; format: functional
Give rule met when the value for Activity is at least 80%. Give rule not met when it is less.

Reference set (4 entries):
C[C@@H]1O[C@@H](O[C@H]2[C@H](O[C@H]3[C@H](O[C@H]4CC[C@]5(C)[C@H]6CC=C7[C@@H]8CC(C)(C)CC[C@]8(C(=O)O)CC[C@@]7(C)[C@]6(C)CC[C@H]5C4(C)C)O[C@H](C(=O)O)[C@@H](O)[C@@H]3O)O[C@H](CO)[C@@H](O)[C@@H]2O)[C@H](O)[C@H](O)[C@H]1O | rule not met
CCCCOC(=O)[C@H]1O[C@@H](O[C@H]2CC[C@]3(C)[C@H]4CC=C5[C@@H]6[C@@H](C)[C@H](C)CC[C@]6(C(=O)O[C@@H]6O[C@H](CO)[C@@H](O[C@@H]7O[C@@H](C)[C@H](O)[C@@H](O)[C@H]7O)[C@H](O)[C@H]6O)CC[C@@]5(C)[C@]4(C)CC[C@H]3C2(C)C)[C@H](O[C@@H]2O[C@H](CO)[C@@H](O)[C@H](O)[C@H]2O[C@@H]2O[C@@H](C)[C@H](O)[C@@H](O)[C@H]2O)[C@@H](O)[C@@H]1O | rule not met
CC1(C)C[C@H]2C3=CC[C@@H]4[C@@]5(C)C=CC(=O)C(C)(C)[C@@H]5CC[C@@]4(C)[C@]3(C)CC[C@@]2(C(=O)O)C[C@@H]1O | rule not met
CC1(C)CC[C@]2(C(=O)O)CC[C@]3(C)C(=CC[C@@H]4[C@@]5(C)CC[C@H](O)[C@@](C)(CO)[C@@H]5CC[C@]43C)[C@@H]2C1 | rule not met

Challenge: Entry "C[C@@H]1O[C@@H](O[C@H]2[C@H](O[C@H]3[C@H](O[C@H]4CC[C@]5(C)[C@H]6CC=C7[C@@H]8CC(C)(C)CC[C@]8(C(=O)O[C@@H]8O[C@H](CO)[C@@H](O)[C@H](O)[C@H]8O)CC[C@@]7(C)[C@]6(C)CC[C@H]5C4(C)C)O[C@H](C(=O)O)[C@@H](O)[C@@H]3O)O[C@H](CO)[C@@H](O)[C@@H]2O)[C@H](O)[C@H](O)[C@H]1O" : is its Activity no less than 80%?
Response given: rule met

Challenge: Hello, I need to know if "COC(=O)c1cc(OC)c2c(c1-c1c(CO)cc(OC)c3c1OCO3)OCO2" has measured Activity not below 80%. Thanks!
Response given: rule not met

* * *

test system: Hepatocyte; experiment: Hepatoprotective activity against D-GaIN/TNFalpha-induced cell death in mouse hepatocyte at 25 uM relative to control; format: functional
quantity: Activity (%)
Give the value in % but do not write % after it.

Challenge: I'd like to know its Activity. The molecule in question is "CC1(C)CC[C@]2(C(=O)O)CC[C@]3(C)[C@H](C=C[C@@H]4[C@@]5(C)C[C@@H](O)[C@H](O)[C@](C)(CO)[C@@H]5CC[C@]43C)[C@H]2C1"
Response given: 15.4

Challenge: Sample "CC1(C)CC[C@]2(C(=O)O)CC[C@]3(C)[C@H](C=C[C@@H]4[C@@]5(C)C[C@@H](O)[C@H](O)C(C)(C)[C@@H]5CC[C@]43C)[C@H]2[C@@H]1O" — what was its Activity?
Response given: 15.4

Challenge: // lookup Activity for "CC1(C)CC[C@]2(C(=O)O)CC[C@]3(C)[C@H](C=C[C@@H]4[C@@]5(C)C[C@@H](O)[C@H](O)C(C)(C)[C@@H]5[C@H](O)C[C@]43C)[C@H]2[C@@H]1O"
Response given: 15.4

Challenge: Quick one: Activity of "C[C@@]1(CO)CC[C@]2(C(=O)O[C@@H]3O[C@H](CO)[C@@H](O)[C@H](O)[C@H]3O)CC[C@]3(C)[C@H](C=C[C@@H]4[C@@]5(C)C[C@@H](O)[C@H](O)[C@@](C)(CO)[C@@H]5CC[C@]43C)[C@H]2C1" ?
Response given: 15.1
